Sourced from patent US20260315487A1

molecular target: UniProt:O15111; test: in-house DELFIA kinase assay, IKKα; type: biochemical
Sequence (O15111 whole entry): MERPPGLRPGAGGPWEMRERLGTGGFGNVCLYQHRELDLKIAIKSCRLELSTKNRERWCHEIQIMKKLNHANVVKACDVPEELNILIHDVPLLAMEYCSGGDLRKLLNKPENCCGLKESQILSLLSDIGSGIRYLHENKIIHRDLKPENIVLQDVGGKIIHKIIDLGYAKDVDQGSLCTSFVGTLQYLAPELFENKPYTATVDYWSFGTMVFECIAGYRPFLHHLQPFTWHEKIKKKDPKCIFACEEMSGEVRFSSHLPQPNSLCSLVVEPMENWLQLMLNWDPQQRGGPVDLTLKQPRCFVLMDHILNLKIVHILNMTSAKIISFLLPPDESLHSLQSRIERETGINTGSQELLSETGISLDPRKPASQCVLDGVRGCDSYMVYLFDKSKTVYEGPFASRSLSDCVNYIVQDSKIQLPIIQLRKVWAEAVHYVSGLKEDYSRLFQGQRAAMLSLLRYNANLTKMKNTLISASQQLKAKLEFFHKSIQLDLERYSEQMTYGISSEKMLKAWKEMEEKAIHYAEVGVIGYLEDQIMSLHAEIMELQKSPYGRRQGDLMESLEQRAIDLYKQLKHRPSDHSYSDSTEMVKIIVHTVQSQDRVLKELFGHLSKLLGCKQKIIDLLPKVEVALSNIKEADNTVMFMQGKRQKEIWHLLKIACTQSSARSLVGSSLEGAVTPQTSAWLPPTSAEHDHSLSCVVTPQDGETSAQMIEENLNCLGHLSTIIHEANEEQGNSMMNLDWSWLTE
pKi: −log10 of the molar value.
parameter: pKi

Known results for compounds:
Enter measured pKi, system UniProt:O15111, for the compound shown: Nc1n[nH]c2ccc(-c3ccnc4[nH]c(-c5ccccc5)cc34)cc12 [4 SU1253] 8.52

Enter measured pKi, system UniProt:O15111, for the compound shown: Nc1n[nH]c2ccc(-c3ccnc4[nH]c(-c5ccccc5O)cc34)cc12 [5a SU1354] 8.40

Enter measured pKi, system UniProt:O15111, for the compound shown: Nc1n[nH]c2ccc(-c3ccnc4[nH]c(-c5cccc(OCCN6CCOCC6)c5)cc34)cc12 [5y SU1336] 8.05

Enter measured pKi, system UniProt:O15111, for the compound shown: Nc1n[nH]c2ccc(-c3ccnc4[nH]c5c(c34)CCCC5)cc12 [2 SU1266] 8.70

Enter measured pKi, system UniProt:O15111, for the compound shown: Cc1ccc(S(=O)(=O)Nc2ccc(-c3cc4c(-c5ccc6[nH]nc(N)c6c5)ccnc4[nH]3)cc2)cc1 [5u SU1283] 8.40

a = Nc1n[nH]c2ccc(-c3ccnc4[nH]c(-c5cccc(O)c5)cc34)cc12 [5d SU1348]
b = Nc1n[nH]c2ccc(-c3ccnc4[nH]c(-c5ccnc(OCc6ccccc6)c5)cc34)cc12 [6g SU1349]
c = Nc1n[nH]c2ccc(-c3ccnc4[nH]c(-c5cccc(S(=O)(=O)N6CCOCC6)c5)cc34)cc12 [5aa SU1311]
Reorder: pKi, max to min. Respond with the label ranking, as requested. a, b, c
(a: 8.30, b: 7.80, c: 7.60)

A = Nc1n[nH]c2ccc(-c3ccnc4[nH]c(-c5ccc(OCc6ccccc6)cc5)cc34)cc12 [5s SU1334]
B = Nc1n[nH]c2ccc(-c3ccnc4[nH]c(-c5cccc(CNC6CCCC6)c5)cc34)cc12 [5n SU1550]
C = COCCOCc1cc(OCc2ccccc2)cc(-c2cc3c(-c4ccc5[nH]nc(N)c5c4)ccnc3[nH]2)c1 [6b SU1358]
D = COc1cc(F)cc(-c2cc3c(-c4ccc5[nH]nc(N)c5c4)ccnc3[nH]2)c1 [5g SU1373]
E = Nc1n[nH]c2ccc(-c3ccnc4[nH]c(-c5ccnc(OCc6ccncc6)c5)cc34)cc12 [6k SU1628]
Reorder: pKi, max to min. Respond with the label ranking, as requested. D, E, B, A, C
(D: 8.52, E: 8.22, B: 8.00, A: 7.80, C: 7.54)

I = Nc1n[nH]c2ccc(-c3ccnc4[nH]c(-c5cccc(C(=O)O)c5)cc34)cc12 [5h SU1303]
II = Nc1n[nH]c2ccc(-c3ccnc4[nH]c(-c5cc(OCc6ccccc6)ccn5)cc34)cc12 [6j SU1602]
Given the listed items, does I or II have the lesser reported pKi? Please identify the chosen entry by its label. II

* * *

target: IKKβ (Homo sapiens, UniProt O14920); assay: in-house DELFIA kinase assay, IKKβ
Sequence (O14920 whole entry): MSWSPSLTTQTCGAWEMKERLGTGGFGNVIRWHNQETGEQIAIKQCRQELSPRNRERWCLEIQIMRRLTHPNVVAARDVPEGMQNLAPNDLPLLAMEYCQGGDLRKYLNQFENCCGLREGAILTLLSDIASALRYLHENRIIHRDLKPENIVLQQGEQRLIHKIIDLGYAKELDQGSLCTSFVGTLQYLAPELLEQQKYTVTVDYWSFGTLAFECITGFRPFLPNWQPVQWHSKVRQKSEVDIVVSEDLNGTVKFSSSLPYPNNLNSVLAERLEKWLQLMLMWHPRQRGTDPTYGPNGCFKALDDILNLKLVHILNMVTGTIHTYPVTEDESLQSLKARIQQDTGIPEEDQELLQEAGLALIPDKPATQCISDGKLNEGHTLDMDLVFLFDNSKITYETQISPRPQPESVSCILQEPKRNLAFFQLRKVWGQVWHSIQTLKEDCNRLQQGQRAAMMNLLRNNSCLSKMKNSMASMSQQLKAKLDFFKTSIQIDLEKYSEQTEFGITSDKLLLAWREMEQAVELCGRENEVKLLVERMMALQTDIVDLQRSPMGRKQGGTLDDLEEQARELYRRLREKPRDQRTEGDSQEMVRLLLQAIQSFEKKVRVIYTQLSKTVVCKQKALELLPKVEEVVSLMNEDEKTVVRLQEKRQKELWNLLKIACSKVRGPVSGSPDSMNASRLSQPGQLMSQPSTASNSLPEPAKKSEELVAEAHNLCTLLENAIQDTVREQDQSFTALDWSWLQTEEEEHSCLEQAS
parameter: Ki (nM)

Supply reported Ki belonging to this compound: Cc1ccc(S(=O)(=O)Nc2cccc(-c3cc4c(-c5ccc6[nH]nc(N)c6c5)ccnc4[nH]3)c2)cc1 [5t SU1278] 1050

1 = Nc1n[nH]c2ccc(-c3ccnc4[nH]c5ccccc5c34)cc12 [3 SU1087]
2 = Nc1n[nH]c2ccc(-c3ccnc4[nH]c(-c5cccc(S(=O)(=O)N6CCOCC6)c5)cc34)cc12 [5aa SU1311]
Pick one: 1 or 2 . Which has the bigger Ki number? Please identify the chosen entry by its label. 2
(2: 149 nM, 1: 5 nM)

A = CS(=O)(=O)c1cccc(-c2cc3c(-c4ccc5[nH]nc(N)c5c4)ccnc3[nH]2)c1 [5k SU1374]
B = COCCNc1cc(OCc2ccccc2)cc(-c2cc3c(-c4ccc5[nH]nc(N)c5c4)ccnc3[nH]2)c1 [6c SU1365]
C = COCCNC(=O)c1cccc(-c2cc3c(-c4ccc5[nH]nc(N)c5c4)ccnc3[nH]2)c1 [5m SU1316]
Reorder: Ki, max to min. Respond with the label ranking, as requested. B, C, A
(B: 1530 nM, C: 107 nM, A: 36 nM)

1 = Nc1n[nH]c2ccc(-c3ccnc4[nH]c(-c5ccccc5)cc34)cc12 [4 SU1253]
2 = Nc1n[nH]c2ccc(-c3ccnc4[nH]c(-c5cccc(O)c5)cc34)cc12 [5d SU1348]
Given the listed items, does 1 or 2 have the lesser reported Ki? Please identify the chosen entry by its label. 1
(1: 15 nM, 2: 26 nM)
